The reader will find reported pIC50 values listed item by item below.
TARGET_ENTITY: EGFR exon 20 SVD Ins D770_N771 (Ba/F3 cells) (Homo sapiens, UniProt P00533, INS770SVD)
Construct: expressed in transfected cells; host or cells: Ba/F3 (murine pro-B cells), retroviral transduction, puromycin selection, IL3-independent pool
Sequence (P00533 with tags, fused parts or gaps INS770SVD): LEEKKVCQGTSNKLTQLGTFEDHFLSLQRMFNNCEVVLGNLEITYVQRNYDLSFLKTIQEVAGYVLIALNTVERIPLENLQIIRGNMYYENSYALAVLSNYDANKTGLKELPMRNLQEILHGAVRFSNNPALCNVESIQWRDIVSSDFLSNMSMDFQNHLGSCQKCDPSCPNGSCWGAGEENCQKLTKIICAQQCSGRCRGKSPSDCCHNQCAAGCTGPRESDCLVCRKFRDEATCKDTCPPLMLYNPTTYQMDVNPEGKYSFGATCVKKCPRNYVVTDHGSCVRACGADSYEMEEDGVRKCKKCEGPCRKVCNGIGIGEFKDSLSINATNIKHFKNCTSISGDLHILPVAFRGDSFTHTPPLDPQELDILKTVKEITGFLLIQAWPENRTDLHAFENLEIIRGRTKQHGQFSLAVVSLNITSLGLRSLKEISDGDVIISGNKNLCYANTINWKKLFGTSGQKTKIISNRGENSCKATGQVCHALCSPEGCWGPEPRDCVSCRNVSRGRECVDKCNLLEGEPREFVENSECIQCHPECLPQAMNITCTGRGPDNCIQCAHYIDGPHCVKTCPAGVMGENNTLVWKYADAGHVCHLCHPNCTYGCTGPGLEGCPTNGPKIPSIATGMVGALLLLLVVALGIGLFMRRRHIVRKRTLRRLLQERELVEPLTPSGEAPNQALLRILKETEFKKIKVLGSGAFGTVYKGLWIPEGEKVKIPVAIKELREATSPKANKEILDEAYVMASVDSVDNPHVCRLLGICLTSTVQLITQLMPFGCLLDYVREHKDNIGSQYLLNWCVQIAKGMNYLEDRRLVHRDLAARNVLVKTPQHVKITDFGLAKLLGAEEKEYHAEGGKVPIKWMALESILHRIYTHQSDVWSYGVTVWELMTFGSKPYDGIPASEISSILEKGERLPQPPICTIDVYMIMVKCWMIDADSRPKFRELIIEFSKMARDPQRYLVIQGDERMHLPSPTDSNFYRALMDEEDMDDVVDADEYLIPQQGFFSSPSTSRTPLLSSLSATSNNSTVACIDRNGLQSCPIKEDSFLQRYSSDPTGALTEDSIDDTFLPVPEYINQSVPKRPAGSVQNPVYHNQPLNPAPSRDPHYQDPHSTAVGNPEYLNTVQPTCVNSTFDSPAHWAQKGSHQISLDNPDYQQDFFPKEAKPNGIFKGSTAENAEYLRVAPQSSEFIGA
ASSAY_COMMENT: Inhibitor activity on EGFR-dependent cell growth (CellTiter-Glo, 72 h), Ba/F3 EGFR exon 20 SVD Ins
Type: cell-based
STATED_CONDITIONS: read-out: BaF3 SVD IC50
pIC50: −log10 of the molar value.

COc1c(Cl)cccc1Nc1c(-c2ccnc(N)n2)[nH]c2c1C(=O)NC[C@@H]2C [186a] = > 7.00

Q: Given the compound `COc1c(Cl)cccc1Nc1c(-c2ccnc(C(F)F)n2)[nH]c2c1C(=O)NCC2` , write its reported pIC50.
Ans: 6.00 to 7.00

Q: Given the compound `COc1c(Cl)cccc1Nc1c(-c2ccnc(Nc3cnnn3C)n2)[nH]c2c1C(=O)NCC2` , write its reported pIC50.
Ans: > 7.00

====

TARGET_ENTITY: EGFR exon 19del (Ba/F3 cells) (Homo sapiens)
Sequence (P00533 with tags, fused parts or gaps DEL746-750): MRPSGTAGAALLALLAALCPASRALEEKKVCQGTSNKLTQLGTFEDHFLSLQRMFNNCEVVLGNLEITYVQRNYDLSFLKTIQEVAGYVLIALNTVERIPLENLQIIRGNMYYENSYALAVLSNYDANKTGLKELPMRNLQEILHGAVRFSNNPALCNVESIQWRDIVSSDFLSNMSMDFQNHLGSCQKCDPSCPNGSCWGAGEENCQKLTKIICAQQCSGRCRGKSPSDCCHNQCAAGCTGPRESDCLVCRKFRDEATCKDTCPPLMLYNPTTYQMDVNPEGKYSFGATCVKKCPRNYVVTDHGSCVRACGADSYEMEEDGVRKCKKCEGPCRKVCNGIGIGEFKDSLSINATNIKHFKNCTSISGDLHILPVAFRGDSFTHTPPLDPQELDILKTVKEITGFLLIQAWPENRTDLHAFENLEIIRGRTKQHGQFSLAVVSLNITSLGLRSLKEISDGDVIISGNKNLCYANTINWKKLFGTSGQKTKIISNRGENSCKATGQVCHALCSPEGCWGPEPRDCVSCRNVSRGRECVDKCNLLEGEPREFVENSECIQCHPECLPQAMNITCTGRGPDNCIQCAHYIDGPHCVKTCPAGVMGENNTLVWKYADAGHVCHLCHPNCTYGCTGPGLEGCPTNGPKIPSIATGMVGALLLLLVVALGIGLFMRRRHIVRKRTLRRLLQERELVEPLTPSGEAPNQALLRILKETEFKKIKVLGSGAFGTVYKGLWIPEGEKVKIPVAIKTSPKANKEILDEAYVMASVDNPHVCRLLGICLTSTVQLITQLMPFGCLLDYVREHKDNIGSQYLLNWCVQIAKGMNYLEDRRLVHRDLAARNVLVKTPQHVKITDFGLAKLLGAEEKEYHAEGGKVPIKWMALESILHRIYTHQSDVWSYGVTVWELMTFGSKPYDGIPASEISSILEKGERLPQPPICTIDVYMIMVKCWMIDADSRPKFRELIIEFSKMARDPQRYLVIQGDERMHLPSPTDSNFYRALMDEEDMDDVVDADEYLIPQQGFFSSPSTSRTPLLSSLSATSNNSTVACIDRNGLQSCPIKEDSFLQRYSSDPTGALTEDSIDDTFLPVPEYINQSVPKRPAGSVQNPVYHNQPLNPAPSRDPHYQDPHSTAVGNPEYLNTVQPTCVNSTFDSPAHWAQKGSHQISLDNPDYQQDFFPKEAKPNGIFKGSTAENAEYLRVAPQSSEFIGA
ASSAY_COMMENT: Inhibitor activity on EGFR-dependent cell growth (CellTiter-Glo, 72 h), Ba/F3 EGFR exon 19del
Assay type: cell-based
STATED_CONDITIONS: Ba/F3 EGFR exon 19del cell growth, read-out: BaF3 Del19 IC50
pIC50: −log10 of the molar value.
The reader will find reported pIC50 values listed item by item below.

Some entries whose results are on file:
COc1c(Cl)cccc1Nc1c(-c2ccncn2)[nH]c2c(C[C@@H]3COCCO3)c[nH]c(=O)c12 = > 7.00
CCOc1ncc2nccc(-c3[nH]c4c(c3Nc3cccc(Cl)c3OC)C(=O)NCC4)c2n1 = > 7.00
COc1c(F)cccc1Nc1c(-c2ccnc3ccc(C)nc23)[nH]c2c1C(=O)NCC2 = > 7.00
COc1c(F)cccc1Nc1c(-c2ccncc2F)[nH]c2c1C(=O)NC[C@@H]2CC1COCCO1 (stereo in doubt) = > 7.00
COc1c(F)cccc1Nc1c(-c2ccnc(C)n2)[nH]c2c(C[C@@H]3COCCO3)c[nH]c(=O)c12 = > 7.00

Q: Tell me pIC50 of `COc1ncc2nccc(-c3[nH]c4c(c3Nc3cccc(F)c3C)C(=O)NCC4)c2n1` when tested on EGFR exon 19del (Ba/F3 cells) (Homo sapiens).
Ans: > 7.00

Q: Tell me pIC50 of `COc1c(F)cccc1Nc1c(-c2ccnc3ccc(OC4(C)COC4)nc23)[nH]c2c1C(=O)NCC2` when tested on EGFR exon 19del (Ba/F3 cells) (Homo sapiens).
Ans: > 7.00

====

The reader will find reported IC50 values listed item by item below.
TARGET_ENTITY: EGFR exon 20 FQEA Ins A763_V764 (Ba/F3 cells) (Homo sapiens, UniProt P00533, INS763FQEA)
Sequence (P00533 with tags, fused parts or gaps INS763FQEA): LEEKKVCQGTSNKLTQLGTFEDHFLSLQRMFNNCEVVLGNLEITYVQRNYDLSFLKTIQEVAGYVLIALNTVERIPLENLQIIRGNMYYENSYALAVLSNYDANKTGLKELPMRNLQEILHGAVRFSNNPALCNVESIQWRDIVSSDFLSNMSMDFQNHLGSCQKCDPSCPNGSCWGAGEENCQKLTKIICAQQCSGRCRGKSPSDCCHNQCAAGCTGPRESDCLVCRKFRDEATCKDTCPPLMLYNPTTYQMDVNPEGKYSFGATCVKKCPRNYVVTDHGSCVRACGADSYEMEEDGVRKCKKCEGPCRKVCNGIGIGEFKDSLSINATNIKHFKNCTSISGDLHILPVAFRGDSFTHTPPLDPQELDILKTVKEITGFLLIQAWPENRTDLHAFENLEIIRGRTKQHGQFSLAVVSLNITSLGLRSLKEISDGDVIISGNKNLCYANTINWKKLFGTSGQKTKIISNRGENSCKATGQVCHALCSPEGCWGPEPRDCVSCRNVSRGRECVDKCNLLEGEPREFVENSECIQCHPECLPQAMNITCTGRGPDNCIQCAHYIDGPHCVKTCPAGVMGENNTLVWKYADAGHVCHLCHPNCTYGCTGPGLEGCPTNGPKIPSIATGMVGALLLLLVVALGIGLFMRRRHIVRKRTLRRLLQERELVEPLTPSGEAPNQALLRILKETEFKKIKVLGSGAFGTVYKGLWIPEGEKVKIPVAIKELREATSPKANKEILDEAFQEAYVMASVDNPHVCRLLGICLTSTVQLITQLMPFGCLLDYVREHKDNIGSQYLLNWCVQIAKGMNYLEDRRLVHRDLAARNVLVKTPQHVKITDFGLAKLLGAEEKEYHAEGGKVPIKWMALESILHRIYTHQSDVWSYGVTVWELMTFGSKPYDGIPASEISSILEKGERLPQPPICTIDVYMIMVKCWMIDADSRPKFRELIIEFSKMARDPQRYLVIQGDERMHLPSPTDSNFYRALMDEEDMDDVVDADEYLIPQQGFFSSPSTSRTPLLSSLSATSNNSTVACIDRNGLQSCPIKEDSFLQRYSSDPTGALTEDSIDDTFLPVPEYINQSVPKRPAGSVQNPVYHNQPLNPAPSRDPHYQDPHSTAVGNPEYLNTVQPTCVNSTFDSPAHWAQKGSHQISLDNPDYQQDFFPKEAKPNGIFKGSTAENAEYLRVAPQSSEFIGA
ASSAY_COMMENT: Inhibitor activity on EGFR-dependent cell growth (CellTiter-Glo, 72 h), Ba/F3 EGFR exon 20 FQEA Ins
STATED_CONDITIONS: read-out: BaF3 FQEA IC50

Some entries whose results are on file:
Nc1nccc(-c2[nH]c3c(c2Nc2cccc4scnc24)C(=O)NCC3)n1 = > 1000 nM
COc1c(Nc2c(-c3ccnc(N)n3)[nH]c3c2C(=O)NCC3)ccc(F)c1F = > 1000 nM
COc1c(F)cccc1Nc1c(-c2ccnc3ccc(NC(C)(C)C)nc23)[nH]c2c1C(=O)NCC2 = < 100 nM

Q: Given the compound `COc1c(Cl)cccc1Nc1c(-c2ccnc3ccc(OCC4CC4)nc23)[nH]c2c1C(=O)NCC2` , write its reported IC50.
Ans: < 100 nM

Q: Given the compound `COc1c(Cl)cccc1Nc1c(-c2ccncc2F)[nH]c2c1C(=O)NC[C@]21CCN(CC(F)(F)F)C1` , write its reported IC50.
Ans: 100 to 1000 nM

Q: Given the compound `COc1c(F)cccc1Nc1c(-c2nc(N)ncc2F)[nH]c2c1C(=O)NCC2` , write its reported IC50.
Ans: > 1000 nM

Q: Given the compound `COc1ncc2nccc(-c3[nH]c4c(c3Nc3cccc(Cl)c3C)C(=O)NCC4)c2n1` , write its reported IC50.
Ans: < 100 nM

Q: Given the compound `Nc1nccc(-c2[nH]c3c(c2Nc2cccc(Cl)c2)C(=O)NCC3)n1` , write its reported IC50.
Ans: 100 to 1000 nM
